Hi there, I'd appreciate the recorded (αSN1-1)/(αSN1), 6 hours, 11° C. for every entry that follows.
target_of_assay: T1, alpha-s1 casein from Bos taurus
T1 chain: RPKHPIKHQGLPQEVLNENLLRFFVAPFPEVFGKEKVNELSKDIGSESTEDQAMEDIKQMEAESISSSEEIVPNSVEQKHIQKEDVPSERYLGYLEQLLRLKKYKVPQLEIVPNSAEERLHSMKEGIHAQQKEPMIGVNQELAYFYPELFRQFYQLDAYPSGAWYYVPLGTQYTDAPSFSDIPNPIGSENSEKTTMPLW
One number for each entry.

Reference set, count: 3
[[record]]
protein = "camel chymosin variant #165 (L295W) (protein) GKVAREPLTSYLDSQYFGKIYIGTPPQEFTVVFDTGSSDLWVPSIYCKSNVCKNHHRFDPRKSSTFRNLGKPLSIHYGTGSMEGFLGYDTVTVSNIVDPNQTVGLSTEQPGEVFTYSEFDGILGLAYPSLASEYSVPVFDNMMDRHLVARDLFSVYMDRNGQGSMLTLGAIDPSYYTGSLHWVPVTLQQYWQFTVDSVTINGVAVACVGGCQAILDTGTSVLFGPSSDILKIQMAIGATENRYGEFDVNCGNLRSMPTVVFEINGRDYPLSPSAYTSKDQGFCTSGFQGDNNSEWWILGDVFIREYYSVFDRANNRVGLAKAI"
number = 1.5

[[record]]
protein = "camel chymosin variant #144 (F223Y) (protein) GKVAREPLTSYLDSQYFGKIYIGTPPQEFTVVFDTGSSDLWVPSIYCKSNVCKNHHRFDPRKSSTFRNLGKPLSIHYGTGSMEGFLGYDTVTVSNIVDPNQTVGLSTEQPGEVFTYSEFDGILGLAYPSLASEYSVPVFDNMMDRHLVARDLFSVYMDRNGQGSMLTLGAIDPSYYTGSLHWVPVTLQQYWQFTVDSVTINGVAVACVGGCQAILDTGTSVLYGPSSDILKIQMAIGATENRYGEFDVNCGNLRSMPTVVFEINGRDYPLSPSAYTSKDQGFCTSGFQGDNNSELWILGDVFIREYYSVFDRANNRVGLAKAI"
number = 1

[[record]]
protein = "camel chymosin variant #148 (Q288N) (protein) GKVAREPLTSYLDSQYFGKIYIGTPPQEFTVVFDTGSSDLWVPSIYCKSNVCKNHHRFDPRKSSTFRNLGKPLSIHYGTGSMEGFLGYDTVTVSNIVDPNQTVGLSTEQPGEVFTYSEFDGILGLAYPSLASEYSVPVFDNMMDRHLVARDLFSVYMDRNGQGSMLTLGAIDPSYYTGSLHWVPVTLQQYWQFTVDSVTINGVAVACVGGCQAILDTGTSVLFGPSSDILKIQMAIGATENRYGEFDVNCGNLRSMPTVVFEINGRDYPLSPSAYTSKDQGFCTSGFNGDNNSELWILGDVFIREYYSVFDRANNRVGLAKAI"
number = 0.6


Proceeding to the next protein to report its (αSN1-1)/(αSN1), 6 hours, 11° C..
(Q) Fill in the blank: the reported (αSN1-1)/(αSN1), 6 hours, 11° C. of camel chymosin variant #154 (D290M) (protein) GKVAREPLTSYLDSQYFGKIYIGTPPQEFTVVFDTGSSDLWVPSIYCKSNVCKNHHRFDPRKSSTFRNLGKPLSIHYGTGSMEGFLGYDTVTVSNIVDPNQTVGLSTEQPGEVFTYSEFDGILGLAYPSLASEYSVPVFDNMMDRHLVARDLFSVYMDRNGQGSMLTLGAIDPSYYTGSLHWVPVTLQQYWQFTVDSVTINGVAVACVGGCQAILDTGTSVLFGPSSDILKIQMAIGATENRYGEFDVNCGNLRSMPTVVFEINGRDYPLSPSAYTSKDQGFCTSGFQGMNNSELWILGDVFIREYYSVFDRANNRVGLAKAI is ____.
(A) 1.1
